Task for the reader: assign each of the following molecules its reported inhibition at 3 µM.
Target: androgen receptor (adenovirus AdEasy+rAR in COS-7 cells) (Rattus norvegicus, UniProt P15207)
Construct: expressed in transfected cells
Sequence (P15207 1-902): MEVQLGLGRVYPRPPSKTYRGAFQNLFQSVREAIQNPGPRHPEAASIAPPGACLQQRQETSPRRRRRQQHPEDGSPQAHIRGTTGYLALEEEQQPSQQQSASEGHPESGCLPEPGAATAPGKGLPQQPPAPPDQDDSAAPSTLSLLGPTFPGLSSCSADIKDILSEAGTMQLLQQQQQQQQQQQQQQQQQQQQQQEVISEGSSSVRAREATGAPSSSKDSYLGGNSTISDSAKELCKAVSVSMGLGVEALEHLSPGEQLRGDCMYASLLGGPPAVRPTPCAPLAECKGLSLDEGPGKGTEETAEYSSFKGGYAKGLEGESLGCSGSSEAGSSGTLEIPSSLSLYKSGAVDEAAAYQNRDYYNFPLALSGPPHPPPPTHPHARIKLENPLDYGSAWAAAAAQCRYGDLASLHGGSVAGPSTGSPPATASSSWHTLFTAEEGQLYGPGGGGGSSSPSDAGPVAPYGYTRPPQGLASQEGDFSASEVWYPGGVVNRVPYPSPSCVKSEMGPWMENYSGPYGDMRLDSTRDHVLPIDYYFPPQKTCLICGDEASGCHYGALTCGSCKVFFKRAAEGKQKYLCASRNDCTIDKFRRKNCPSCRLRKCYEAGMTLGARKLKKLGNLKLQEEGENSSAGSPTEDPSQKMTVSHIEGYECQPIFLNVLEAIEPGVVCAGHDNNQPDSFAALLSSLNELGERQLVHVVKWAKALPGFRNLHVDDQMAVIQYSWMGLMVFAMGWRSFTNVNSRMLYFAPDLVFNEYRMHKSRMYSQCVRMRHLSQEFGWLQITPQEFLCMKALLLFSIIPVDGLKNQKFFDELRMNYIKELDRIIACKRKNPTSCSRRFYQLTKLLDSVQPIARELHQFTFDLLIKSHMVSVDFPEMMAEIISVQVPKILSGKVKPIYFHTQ
Experiment: COS-7 Whole-Cell Androgen Receptor Binding Assay, Adenovirus Transduction
Conditions: COS binding; 3000 nM unless otherwise noted
One number for each entry, in %.

molecule="CC(O)(CSc1ccc(O)cc1)c1cc2cc(Cl)c(C(F)(F)F)cc2[nH]1 (centres unmarked) [compound 120]" numericvalue=86
molecule="CC(O)(CS(=O)(=O)c1ccc(O)cc1)c1cc2cc(Cl)c(C(F)(F)F)cc2[nH]1 (centres unmarked) [compound 121]" numericvalue=72
molecule="CCS(=O)(=O)CC(C)(O)c1[nH]c2cc(C(F)(F)F)c(C#N)cc2c1C (racemic) [compound 246]" numericvalue=70
molecule="CC(O)(CSCc1cccs1)c1cc2cc([N+](=O)[O-])c(C(F)(F)F)cc2[nH]1 (centres unmarked) [compound 197]" numericvalue=86
molecule="CCSCC(C)(O)c1cc2cc([N+](=O)[O-])c(C(F)(F)F)cc2n1S(C)(=O)=O (centres unmarked) [compound 141]" numericvalue=42
molecule="CCSCC(C)(O)c1[nH]c2cc(C(F)(F)F)c([N+](=O)[O-])cc2c1C#N (centres unmarked) [compound 242]" numericvalue=92
molecule="CCCCSCC(C)(O)c1cc2cc([N+](=O)[O-])c(C(F)(F)F)cc2[nH]1 (centres unmarked) [compound 200]" numericvalue=97

Q: # query: inhibition at 3 µM of entry CC(O)(CS(C)(=O)=O)c1cc2cc(Cl)c(C(F)(F)F)cc2n1S(C)(=O)=O (centres unmarked) [compound 137]
Ans: 73
